measuredOn: T1, COVID S1 RBM Fc fusion (Antigen 2) (SARS-CoV-2, UniProt P0DTC2 437-508)
T1 construct: domain: RBM
testMethodNotes: phage ELISA
reportedEndpoint: specificity ELISA, percent binding relative to Acro S1
Put down the number, then write its unit next to it.

Respond only with specificity ELISA, percent binding relative to Acro S1 recorded for SARS-CoV-2 variant 1-41 (antibody, V domains shown) VH: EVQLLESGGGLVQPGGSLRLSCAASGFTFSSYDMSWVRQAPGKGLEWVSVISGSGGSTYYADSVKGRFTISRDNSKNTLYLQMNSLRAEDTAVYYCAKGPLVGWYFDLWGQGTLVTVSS VL: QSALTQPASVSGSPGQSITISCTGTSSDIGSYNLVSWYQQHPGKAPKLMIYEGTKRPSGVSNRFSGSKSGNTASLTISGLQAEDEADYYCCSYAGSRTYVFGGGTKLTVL
26.3%

Respond only with specificity ELISA, percent binding relative to Acro S1 recorded for SARS-CoV-2 variant 1-20 (antibody, V domains shown) VH: EVQLLESGGGLVQPGGSLRLSCAASGITFSSYAMSWVRQAPGKGLEWVSGISGSGGSTYYADSVKGRFTISRDNSKNTLYLQMNSLRAEDTAVYYCANHGSGTIFGVVIAKYYFDYWGQGTLVTVSS VL: QSALTQPASVSGSPGQSITISCTGTSSDVGHYNLVSWYQQHPGKAPKLMIYEGTKRPSGVSNRFSGSKSGNTASLTISGLQAEDEADYYCCSYAGSSSFVVFGGGTKLTVL
14.5%

Respond only with specificity ELISA, percent binding relative to Acro S1 recorded for SARS-CoV-2 variant 1-22 (antibody, V domains shown) VH: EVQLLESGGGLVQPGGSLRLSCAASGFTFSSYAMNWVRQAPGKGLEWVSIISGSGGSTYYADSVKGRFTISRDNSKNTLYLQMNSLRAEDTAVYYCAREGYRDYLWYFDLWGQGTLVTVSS VL: QSALTQPASVSGSPGQSITISCTGTSTDVGSYNLVSWYQQHPGKAPKLMIYEGSQRPSGVSNRFSGSKSGNTASLTISGLQAEDEADYYCCSYAGSSTVFGGGTKLTVL
4.7%

// provenance: patent US20210395344A1
